Source of measurements: PubChem BioAssay (NCI)

# Test system: SN12C renal
# Assay Protocol: NCI-60 one-dose screen, 48 h (100 = growth as untreated, 0 = no growth, -100 = all killed)
# Condition: 10 µM unless noted
The panel holds about 83,000 compounds, 20% with a hit somewhere; the sample as a whole holds those more often.
Where growth equals or exceeds 50%, the correct label is condition met; where it does not, the label is condition not met.

Molecule | Class
Cc1nc(-c2cn3c(n2)-c2ccc(-c4cnn(C(C)(C)C(N)=O)c4)cc2OCC3)n(C(C)C)n1 | condition not met
COC1CCC(N2C(=O)CNc3ncc(-c4ccc(C(C)(C)O)nc4)nc32)CC1 (stereo not given) | condition not met
CSc1nc2ncnc(SC)c2[nH]1 | condition met
O=C(O)c1ccc(Nc2ncc3c(n2)-c2ccc(Cl)cc2C(c2c(F)cccc2F)=NC3)cc1 | condition met
COc1cc2c(cc1OCCCCCN1CCN(c3ncnc4ccccc34)CC1)N=CC1CCCN1C2=O (stereo not given) | condition not met
COc1ccc2nc3cc(Cl)ccc3c(Nc3ccc(N(C)C)cc3)c2c1 | condition met

hey, is growth for this one >= 50%? CC1CCC(n2cnc3c(Cl)ncnc32)O1 (stereo not given)
condition met

hey, is growth for this one >= 50%? `Cc1ccc(NC(=O)c2ccc(CN3CCN(C)CC3)cc2)cc1Nc1nc(-c2cccnc2)cs1`
condition met

hey, is growth for this one >= 50%? `CCN1CCN(c2nc(C)cc(N(CCNc3ccnc4cc(Cl)ccc34)Cc3ccc4c(c3)OCO4)n2)CC1`
condition met

---

# System: OVCAR-8 ovarian
# Assay Protocol: NCI-60 one-dose screen, 48 h
# Condition: 10 µM unless noted
# Description: Growth inhibition of the OVCAR-8 human tumor cell line is measured as a screen for anti-cancer activity. Cells are grown in 96 well plates and exposed to the test compound for 48 hours. Compounds are tested at a single concentration, which is 10^-5 M for most compounds. The reported endpoint is percent growth (GI% or GIPRCNT), where numbers from 0 - 100% represent growth inhibition, and numbers from -100% - 0 represent cell death. For example, a value of 40 represents 60% growth inhibition. […]
The panel holds about 83,000 compounds, 20% with a hit somewhere; the sample as a whole holds those more often. Calls of active or inactive are those of the source. Rule for the calls: active = growth percent below 10; inactive = the rest.
Respond using exactly one of the listed classes: active, inactive

Compound | Class
c1cc[n+](Cc2c3ccccc3cc3c2ccc2ccccc23)cc1 | inactive
C[C@@]1(C(=O)Nc2ccc(F)nc2)CCCN1c1nc(Nc2cc(C3CC3)[nH]n2)c2cccn2n1 | inactive
CCS(=O)(=O)N1CCN(c2ccc(Nc3ncc(C(N)=O)c(NC4CC4)n3)cc2)CC1 | inactive

Consider now this further compound.
Recorded test outcome, item `COc1cnc2c(c1)C(=O)c1c-2n(CCCNC2=NCCS2)c(=O)c2cc(Cl)ccc12`
active

---

# Tested on: U251 CNS
# Assay Protocol: NCI-60 one-dose screen, 48 h (100 = growth as untreated, 0 = no growth, -100 = all killed)
# Condition: 10 µM unless noted
This is part of a sample that, as a whole, favours compounds with a hit. Of some 83,000 tested, about 20% had one in any assay.
The reader will find reported growth values listed item by item below.
Answer with a number only, understood to be in %.

Missing value: growth, U251 CNS, entry CC[C@@H]1C(=O)N(C)c2cnc(Nc3ccc(C(=O)NC4CCC(N5CCN(CC6CC6)CC5)CC4)cc3OC)nc2N1C(C)C (some centres undefined) . Fill in?
-16.3

Missing value: growth, U251 CNS, entry `COc1ccc(-c2nocc2-c2cc(OC)c(OC)c(OC)c2)cc1` . Fill in?
19.1

Missing value: growth, U251 CNS, entry `COc1cc(N2CCC(N3CCN(C)CC3)CC2)ccc1Nc1ncnc(Nc2ccccc2S(=O)(=O)C(C)C)n1` . Fill in?
101

Missing value: growth, U251 CNS, entry `C=CC(=O)Nc1cc(Nc2nccc(-c3cn(C)c4ccccc34)n2)c(OC)cc1N(C)CCN(C)C` . Fill in?
-72.7

Missing value: growth, U251 CNS, entry `CCOC(=O)C1=C(C)N=C2Sc3cccc(OC)c3N2[C@H]1c1ccccn1` . Fill in?
96.4

Missing value: growth, U251 CNS, entry `O=C(NOC[C@H](O)CO)c1ccc(F)c(F)c1Nc1ccc(I)cc1F` . Fill in?
38.6

Missing value: growth, U251 CNS, entry `N#Cc1ccc(-n2nnc3ccccc32)cc1C#N` . Fill in?
91.3

Missing value: growth, U251 CNS, entry `CC(C)Nc1cc(-c2c[nH]c(C(=O)N[C@H](CO)c3cccc(Cl)c3)c2)c(Cl)cn1` . Fill in?
28

Missing value: growth, U251 CNS, entry CCCc1cc2cc(-n3nc(C)c4c3CC(C)(C)CC4=O)cc(NC3CCC(O)CC3)c2c(=O)[nH]1 (centres undefined) . Fill in?
25.6
